- target: HLA-A*30:02
- runDescription: IEDB peptide-MHC binding, purified MHC/competitive/radioactivity; filed as Kd, often an IC50 or EC50 that approximates it; bounds were set here for any values at or beyond the usual limits of such assays
- setupConditions: source organism: Mammarenavirus choriomeningitidis
readoutName: pKd
Quick note: pKd means taking -log10 of the concentration in moles per liter.

WCSQTDYQY: 6.47

Query: Look at this sequence and give its reported pKd. WCSQTDYQYL
Reply: 4.97

---

- target: HLA-B*15:17
- runDescription: IEDB peptide-MHC binding, purified MHC/competitive/fluorescence; filed as Kd, often an IC50 or EC50 that approximates it; bounds were set here for any values at or beyond the usual limits of such assays
- setupConditions: source organism: Brucella melitensis bv. 1 str. 16M
readoutName: Kd

Query: Look at this sequence and give its reported Kd. AVGVVCTGL
Reply: ≥ 20 µM

---

- target: HLA-B*08:01
- runDescription: IEDB peptide-MHC binding, purified MHC/direct/fluorescence; filed as Kd, often an IC50 or EC50 that approximates it; bounds were set here for any values at or beyond the usual limits of such assays
- setupConditions: source organism: SARS-CoV1
readoutName: Kd (µM)
Return type: number; implicit unit µM.

Query: Look at this sequence and give its reported Kd. EHYVRITGL
Reply: 3.53

Query: Look at this sequence and give its reported Kd. KLFIRQEEV
Reply: 2.85

---

- target: HLA-B*44:03
- runDescription: IEDB peptide-MHC binding, purified MHC/competitive/radioactivity; filed as Kd, often an IC50 or EC50 that approximates it; bounds were set here for any values at or beyond the usual limits of such assays
- setupConditions: source organism: Dengue virus 1 Brazil/97-11/1997
readoutName: pKd
Quick note: pKd means taking -log10 of the concentration in moles per liter.

LEFFLMVLL: 4.81

Next:
Query: Look at this sequence and give its reported pKd. DEDNPYKTW
Reply: 6.19

---

- target: HLA-B*83:01
- runDescription: IEDB peptide-MHC binding, purified MHC/competitive/fluorescence; filed as Kd, often an IC50 or EC50 that approximates it; bounds were set here for any values at or beyond the usual limits of such assays
- setupConditions: source organism: human gammaherpesvirus 4
readoutName: Kd

Query: Look at this sequence and give its reported Kd. TEMYIMYAM
Reply: ≥ 5 µM

---

// reported pKd per item
- target: HLA-A*02:01
- runDescription: IEDB peptide-MHC binding, purified MHC/competitive/radioactivity; filed as Kd, often an IC50 or EC50 that approximates it; bounds were set here for any values at or beyond the usual limits of such assays
- setupConditions: source organism: Dengue virus 1 Singapore/S275/1990
Quick note: pKd means taking -log10 of the concentration in moles per liter.

LLMLVTPSM: 8.10

Next:
Query: Look at this sequence and give its reported pKd. ILLKATLLAV
Reply: 8.65

---

- target: HLA-A*02:03
- runDescription: IEDB peptide-MHC binding, purified MHC/competitive/radioactivity; filed as Kd, often an IC50 or EC50 that approximates it; bounds were set here for any values at or beyond the usual limits of such assays
- setupConditions: source organism: Homo sapiens
readoutName: Kd (nM)
Return type: number; implicit unit nM.

ELRLLIHQSL: 1580

Query: Look at this sequence and give its reported Kd. ILHVDNHIGI
Reply: 11.1

Query: Look at this sequence and give its reported Kd. PLESDAVECL
Reply: 11900

Query: Look at this sequence and give its reported Kd. YVASYLLAAL
Reply: 1.04
